# Assay Target: SARS-CoV-2 PL^pro (Severe acute respiratory syndrome coronavirus 2, UniProt P0DTD1)
# Experimental Details: biochemical
pIC50: −log10 of the molar value.
Endpoint Name: pIC50

Value lookup for pIC50; key = `COc1cc(C(=O)NS(=O)(=O)c2ccccc2C)ccc1Cc1cn(C)c2ccc(NC(=O)OC3CCCC3)cc12`
~4.62

====

# Assay Target: UniProt:P0DTD1
# Experimental Details: PL^pro deubiquitinase substrate assay
# Format: biochemical, SARS-CoV-2
# Condition: deubiquitinase substrate, dose response
Endpoint Name: IC50 (µM)
All answers are understood in µM, so give the number only.

Value lookup for IC50; key = CC1=NN(c2ccc(C)c(C)c2)C(=O)/C1=N/Nc1cccc(-c2cccc(C(=O)O)c2)c1O [DDL-701, eltrombopag]
21
